system: pre-miR-27a (RNA, miRNA) GGGCUGAGGAGCAGGGCUUAGCUGCUUGUGAGCAGGGUCCACACCAAGUCGUGUUCACAGUGGCUAAGUUCCGCCCCCCAG; assay: fluorescence titration (bisbenzimidazole emission); conditions: 10 mM NaCl, 1 mM MgCl2; 10 mM sodium cacodylate, pH 7.5, 25 °C; compound 500 nM
quantity: Ka (M⁻¹)
Give just the numeric value; M⁻¹ need not be written.

{"smi": "CN1CCN(c2ccc3nc(-c4ccc5nc(-c6ccc(OCCCCOCc7cn(C[C@H]8O[C@@H](O[C@@H]9[C@@H](O)[C@H](N)C[C@H](N)[C@H]9O[C@H]9O[C@H](CN)[C@@H](O)[C@H](O)[C@H]9N)[C@H](O)[C@@H]8O[C@H]8O[C@@H](CN)[C@@H](O)[C@H](O)[C@H]8N)nn7)cc6)[nH]c5c4)[nH]c3c2)CC1", "Ka, M⁻¹": "7.4e+08"}
{"smi": "CN1CCN(c2ccc3nc(-c4ccc5nc(-c6ccc(O)cc6)[nH]c5c4)[nH]c3c2)CC1", "Ka, M⁻¹": "3.4e+06"}

# input for lookup
Ka measured on `CN1CCN(c2ccc3nc(-c4ccc5nc(-c6ccc(OCCCCCCOCc7cn(C[C@H]8O[C@@H](O[C@@H]9[C@@H](O)[C@H](N)C[C@H](N)[C@H]9O[C@H]9O[C@H](CN)[C@@H](O)[C@H](O)[C@H]9N)[C@H](O)[C@@H]8O[C@H]8O[C@@H](CN)[C@@H](O)[C@H](O)[C@H]8N)nn7)cc6)[nH]c5c4)[nH]c3c2)CC1` = 1.2e+08

----------
Form field: Ka (one value per entry).
test system: pre-miR-27a (RNA, miRNA) GGGCUGAGGAGCAGGGCUUAGCUGCUUGUGAGCAGGGUCCACACCAAGUCGUGUUCACAGUGGCUAAGUUCCGCCCCCCAG; experiment: fluorescence titration (bisbenzimidazole emission); details: 10 mM NaCl, 1 mM MgCl2; 10 mM sodium cacodylate, pH 7.5, 25 °C; compound 500 nM
Give just the numeric value; M⁻¹ need not be written.

{"smi": "CN1CCN(c2ccc3nc(-c4ccc5nc(-c6ccc(OCCCCCCCCCc7cn(C[C@H]8O[C@@H](O[C@@H]9[C@@H](O)[C@H](N)C[C@H](N)[C@H]9O[C@H]9O[C@H](CN)[C@@H](O)[C@H](O)[C@H]9N)[C@H](O)[C@@H]8O[C@H]8O[C@@H](CN)[C@@H](O)[C@H](O)[C@H]8N)nn7)cc6)[nH]c5c4)[nH]c3c2)CC1", "Ka, M⁻¹": "3.2e+08"}
{"smi": "CN1CCN(c2ccc3nc(-c4ccc5nc(-c6ccc(OCCCCCCCCOCc7cn(C[C@H]8O[C@@H](O[C@@H]9[C@@H](O)[C@H](N)C[C@H](N)[C@H]9O[C@H]9O[C@H](CN)[C@@H](O)[C@H](O)[C@H]9N)[C@H](O)[C@@H]8O[C@H]8O[C@@H](CN)[C@@H](O)[C@H](O)[C@H]8N)nn7)cc6)[nH]c5c4)[nH]c3c2)CC1", "Ka, M⁻¹": "2.5e+07"}

# input for lookup
Ka measured on `CN1CCN(c2ccc3nc(-c4ccc5nc(-c6ccc(OCCCCCCCCCCOCc7cn(C[C@H]8O[C@@H](O[C@@H]9[C@@H](O)[C@H](N)C[C@H](N)[C@H]9O[C@H]9O[C@H](CN)[C@@H](O)[C@H](O)[C@H]9N)[C@H](O)[C@@H]8O[C@H]8O[C@@H](CN)[C@@H](O)[C@H](O)[C@H]8N)nn7)cc6)[nH]c5c4)[nH]c3c2)CC1` = 1.2e+07
